Target: T1, HLA-A*02:01 (human)
T1 construct: MHC class I monomer of the UV-ligand exchange assay; also called peptide-receptive MHC molecules; MHC class I
Assay: UV peptide-exchange ELISA
Exercise: for every item that follows, state its recorded peptide exchange yield.

Some binders with known peptide exchange yield results, for comparison:
> print(dat)
          binder     result
1      RLYEITIEV      ≥ 75%
2      SIFASPESV  50 to 75%
3      NLQVTQPTV  50 to 75%
4     KTVEPPISQV  20 to 50%
5    VLAEQNIIPSA  50 to 75%
6  LLLEIGEVGKLFV  50 to 75%
7     SLFDQPLSII  50 to 75%
8     YLLEEKIASL  50 to 75%

Need peptide exchange yield for each of these binders.
1. GLLQINDKIAL
2. HLMLHTAAL

["50 to 75%", "≥ 75%"]

peptide exchange yield reported for this binder `ITTEVVNELYV` : 50 to 75%
